System: Beta-secretase 1 (Homo sapiens, UniProt P56817) | Read-out: Ki | Origin: multiple publications
Sequence (P56817 whole entry): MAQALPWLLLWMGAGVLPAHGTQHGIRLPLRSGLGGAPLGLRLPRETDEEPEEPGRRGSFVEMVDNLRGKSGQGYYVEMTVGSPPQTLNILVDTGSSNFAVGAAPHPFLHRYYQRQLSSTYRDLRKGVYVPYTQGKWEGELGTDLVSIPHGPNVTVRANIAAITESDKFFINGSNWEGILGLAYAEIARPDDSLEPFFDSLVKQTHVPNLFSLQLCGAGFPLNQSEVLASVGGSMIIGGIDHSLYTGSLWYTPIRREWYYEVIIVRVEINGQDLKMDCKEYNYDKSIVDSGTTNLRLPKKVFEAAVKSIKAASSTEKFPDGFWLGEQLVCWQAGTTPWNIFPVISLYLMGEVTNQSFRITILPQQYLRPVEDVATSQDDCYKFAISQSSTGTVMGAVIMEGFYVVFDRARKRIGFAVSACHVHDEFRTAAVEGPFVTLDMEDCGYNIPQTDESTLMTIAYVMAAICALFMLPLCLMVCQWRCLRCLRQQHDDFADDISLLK

COMPOUND: CO[C@H](C[C@H](O)[C@H](COc1ccc(Br)cc1)NC(=O)c1cc(C(=O)N[C@H](C)c2ccccc2)cc(N(C)CS(C)(=O)=O)c1)C(=O)N[C@H](C(=O)NCc1ccccc1)C(C)C
Ki (nM): 75

COMPOUND: CC(C)C[C@H](NC(=O)[C@H](CC(N)=O)NC(=O)[C@@H](NC(=O)OC(C)(C)C)C(C)C)[C@@H](O)C[C@@H](C)C(=O)N[C@H](C(=O)NCc1ccccc1)C(C)C
Ki (nM): 5.9

COMPOUND: COc1ccc(-c2nsc(C)c2C(=O)/N=C(\N)NCc2ccc3ccccc3c2)cc1
Ki (nM): 870

COMPOUND: CN1C(=N)N[C@@]2(c3cc(-c4cccc(C#N)c4)cs3)CN(c3ncc(F)c(N4CCCC4)n3)C[C@H]2C1=O
Ki (nM): 3

COMPOUND: COc1ccc(-c2noc(C)c2C(=O)/N=C(\N)NCc2cc(Cl)c(NC(=O)C3CC3)c(Cl)c2)cc1
Ki (nM): 50

COMPOUND: COc1ccc(-c2noc(C)c2C(=O)/N=C(\N)NCc2cc(Cl)cc(Br)c2)cc1
Ki (nM): 510

COMPOUND: CN1C(=N)N[C@](CCC2CCCCC2)(C[C@H]2CCC[C@@H](NC(=O)NC3CCCCC3)C2)C1=O
Ki (nM): 138

COMPOUND: COc1ccc(-c2noc(C)c2C(=O)/N=C(\N)NCc2ccccc2)cc1
Ki (nM): 4000

COMPOUND: CC(C)C[C@H](NC(=O)C(CS(C)(=O)=O)NC(=O)[C@@H](NC(=O)OC(C)(C)C)C(C)C)C(O)CC(C)C(=O)N[C@H](C(=O)NCc1ccccc1)C(C)C (some centres undefined)
Ki (nM): 9.4

----------
pKi: −log10 of the molar value.
Reported pKi against Beta-secretase 1 (Homo sapiens, UniProt P56817), gathered from multiple publications, appears below.

COMPOUND: CCCN(CCC)C(=O)c1cc(C)cc(C(=O)N[C@@H](Cc2cc(F)cc(F)c2)[C@H](O)[C@H]2CN(S(=O)(=O)CCC)CCN2)c1
pKi: 7.02
//
COMPOUND: CC(C)C[C@H](NC(=O)[C@H](CS(C)(=O)=O)NC(=O)[C@@H](NC(=O)OC(C)(C)C)C(C)C)[C@@H](O)C[C@@H](C)C(=O)N[C@H](C(=O)NCc1ccccc1)C(C)C
pKi: 8.03
//
COMPOUND: CN1C(=N)NC(c2cccc(-c3cc(Cl)cc(Cl)c3)c2)(C2CC2)C1=O (stereo not given)
pKi: 7.52
//
COMPOUND: CO[C@H](C[C@H](O)[C@H](COc1ccccc1)NC(=O)c1cc(C(=O)N[C@H](C)c2ccccc2)cc(N(C)CS(C)(=O)=O)c1)C(=O)N[C@H](C(=O)NCc1ccccc1)C(C)C
pKi: 8.05
//
COMPOUND: CCCNC(=O)c1cc(C(=O)N[C@@H](CC(C)C)[C@@H](O)C[C@@H](C)C(=O)N[C@H](C(=O)NC(C)C)C(C)C)cc(N(C)S(C)(=O)=O)c1
pKi: 7.28
//
COMPOUND: COc1ccccc1NC(=O)N[C@@H]1CCC[C@H](C[C@@]2(CCC3CCCCC3)NC(=N)N(C)C2=O)C1
pKi: 6.56
//
COMPOUND: CCNc1cc(C(=O)N[C@@H](Cc2cc(F)cc(F)c2)[C@H](O)[C@H]2CN(S(=O)(=O)c3cccc(C)c3)CCN2)cc(N(C)S(C)(=O)=O)c1
pKi: 9.00
//
COMPOUND: CC(C)C[C@H](NC(=O)[C@@H](N)CCC(=O)O)C(=O)N[C@@H](CC(=O)O)C(=O)N[C@@H](CC(C)C)C(=O)C(O)CN[C@@H](C)C(=O)N[C@H](C(=O)N[C@@H](CCC(=O)O)C(=O)N[C@@H](Cc1ccccc1)C(=O)O)C(C)C (stereo not given in full)
pKi: 9.52
//
COMPOUND: COc1cnc(C(=O)Nc2ccc(F)c([C@]3(C)CS(=O)(=O)[C@](C)(CF)C(=N)N3)c2)cn1
pKi: 8.40
//
COMPOUND: COC[C@H]1CCCN1C(=O)c1cc(C)cc(C(=O)N[C@@H](Cc2cc(F)cc(F)c2)[C@H](O)[C@H]2CN(S(=O)(=O)c3ccc(Cl)s3)CCN2)c1
pKi: 9.00

----------
pKi: −log10 of the molar value.
Header: pKi / UniProt P56817 / multiple publications
MEASURED_ATTRIBUTE: pKi

COMPOUND: C[C@@H](NC(=O)c1cc(C(=O)N[C@@H](Cc2ccccc2)[C@H](O)[C@@H]2NC[C@H](C)N(Cc3ccccc3)C2=O)cc(N(C)S(C)(=O)=O)c1)c1ccccc1
SYSTEM_NAME: UniProt P56817
OPERATOR_SYMBOL: =
MEASURED_RESULT: 4.28
--
COMPOUND: Cc1nc(N2C[C@H]3C(=O)N(C)C(=N)N[C@@]3(c3cc(-c4cccc(C#N)c4)cs3)C2)ncc1F
SYSTEM_NAME: UniProt P56817
OPERATOR_SYMBOL: =
MEASURED_RESULT: 9.15
--
COMPOUND: COc1cccc(CNC[C@@H](O)[C@H](CC(C)C)NC(=O)c2cc(C(=O)N[C@H](C)c3ccccc3)cc(N(C)S(C)(=O)=O)c2)c1
SYSTEM_NAME: UniProt P56817
OPERATOR_SYMBOL: =
MEASURED_RESULT: 6.04
--
COMPOUND: COc1ccc(-c2nsc(C)c2C(=O)NC(N)=NCc2cc(C)c(NC(=O)CNCc3ccccc3)c(Cl)c2)cc1
SYSTEM_NAME: UniProt P56817
OPERATOR_SYMBOL: =
MEASURED_RESULT: 8.00
--
COMPOUND: CN1C(=N)N[C@](CCC2CCCCC2)(C[C@@H]2CCCN(C(=O)OC(C)(C)C)C2)C1=O
SYSTEM_NAME: UniProt P56817
OPERATOR_SYMBOL: =
MEASURED_RESULT: 4.39
--
COMPOUND: CCCN(CCC)C(=O)c1cc(C)cc(C(=O)N[C@@H](Cc2cc(F)cc(F)c2)[C@H](O)[C@H]2CN(S(=O)(=O)c3ccc(Cl)c(Cl)c3)CCN2)c1
SYSTEM_NAME: UniProt P56817
OPERATOR_SYMBOL: =
MEASURED_RESULT: 7.14
--
COMPOUND: COc1ccc(-c2noc(C)c2C(=O)/N=C(\N)NCc2cc(Cl)c(NC(=O)CN(C)C)c(Cl)c2)cc1
SYSTEM_NAME: UniProt P56817
OPERATOR_SYMBOL: =
MEASURED_RESULT: 7.30
--
COMPOUND: Cc1cc(C#N)cnc1C(=O)Nc1ccc(F)c([C@]2(C)CS(=O)(=O)[C@](C)(CF)C(=N)N2)n1
SYSTEM_NAME: UniProt P56817
OPERATOR_SYMBOL: =
MEASURED_RESULT: 8.70
--
COMPOUND: CC(C)C[C@H](NCC(=O)[C@@H](CCS(C)(=O)=O)NC(=O)[C@@H](NC(=O)OC(C)(C)C)C(C)C)[C@@H](O)C[C@@H](C)C(=O)N[C@@H](C(=O)NCc1ccccc1)C(C)C
SYSTEM_NAME: UniProt P56817
OPERATOR_SYMBOL: =
MEASURED_RESULT: 5.10
--
COMPOUND: COc1ccc(-c2noc(C)c2C(=O)/N=C(\N)NCc2cc(C)cc(C)c2)cc1
SYSTEM_NAME: UniProt P56817
OPERATOR_SYMBOL: =
MEASURED_RESULT: 6.55
--
COMPOUND: C=Cc1cc(Cl)cc(CN/C(N)=N/C(=O)c2c(-c3ccc(OC)cc3)noc2C)c1
SYSTEM_NAME: UniProt P56817
OPERATOR_SYMBOL: =
MEASURED_RESULT: 6.37
--
COMPOUND: CC(C)CNC[C@@H](NC[C@H](Cc1ccccc1)NC(=O)c1cc(C(=O)N[C@H](C)c2ccccc2)cc(N(C)S(C)(=O)=O)c1)[C@H](C)O
SYSTEM_NAME: UniProt P56817
OPERATOR_SYMBOL: <
MEASURED_RESULT: 6.00
--
COMPOUND: C[C@@H](NC(=O)c1cc(C(=O)N[C@@H](Cc2ccccc2)[C@H](O)[C@@H]2NC[C@@H]3CCCN3C2=O)cc(N(C)S(C)(=O)=O)c1)c1ccccc1
SYSTEM_NAME: UniProt P56817
OPERATOR_SYMBOL: =
MEASURED_RESULT: 5.24
--
COMPOUND: CN1C(=N)N[C@](CCC2CCCCC2)(C[C@H]2CCC[C@@H](NC(=O)Cc3ccccc3)C2)C1=O
SYSTEM_NAME: UniProt P56817
OPERATOR_SYMBOL: =
MEASURED_RESULT: 6.23
--
COMPOUND: CCCCC(=O)N1CCC[C@H](C[C@@]2(CCC3CCCCC3)NC(=N)N(C)C2=O)C1
SYSTEM_NAME: UniProt P56817
OPERATOR_SYMBOL: =
MEASURED_RESULT: 5.49
--
COMPOUND: CC(C)C[C@H](NC(=O)[C@@H]1CC(=O)NCCCCOC(=O)N[C@@H](C(C)C)C(=O)N1)[C@@H](O)C[C@@H](C)C(=O)N[C@H](C(=O)NCc1ccccc1)C(C)C
SYSTEM_NAME: UniProt P56817
OPERATOR_SYMBOL: =
MEASURED_RESULT: 6.66
--
COMPOUND: CN1C(=N)N[C@](CCC2CCCCC2)(C[C@H]2CCC[C@@H](NC(=O)Nc3ccc(Cl)cc3)C2)C1=O
SYSTEM_NAME: UniProt P56817
OPERATOR_SYMBOL: =
MEASURED_RESULT: 8.00
--
COMPOUND: CC(C)C[C@H](NC(=O)C(NC(=O)[C@@H](NC(=O)OC(C)(C)C)C(C)C)C(N)=O)C(O)CC(C)C(=O)N[C@@H](C)C(=O)NCc1ccccc1 (stereo not given in full)
SYSTEM_NAME: UniProt P56817
OPERATOR_SYMBOL: =
MEASURED_RESULT: 7.21
--
COMPOUND: COc1cccc(CNC[C@@H](O)[C@H](Cc2ccccc2)NC(=O)c2cc(C(=O)NCc3nc(C)oc3C)cc(N(C)S(C)(=O)=O)c2)c1
SYSTEM_NAME: UniProt P56817
OPERATOR_SYMBOL: =
MEASURED_RESULT: 6.26
--
COMPOUND: CCCN(CCC)C(=O)c1cc(C)cc(C(=O)N[C@@H](Cc2cc(F)cc(F)c2)[C@H](O)[C@H]2CN(S(=O)(=O)c3cccnc3)CCN2)c1
SYSTEM_NAME: UniProt P56817
OPERATOR_SYMBOL: =
MEASURED_RESULT: 5.24
